Molecular target: Phospholipase A2 group V (Homo sapiens, UniProt P39877)
Sequence (P39877 whole entry): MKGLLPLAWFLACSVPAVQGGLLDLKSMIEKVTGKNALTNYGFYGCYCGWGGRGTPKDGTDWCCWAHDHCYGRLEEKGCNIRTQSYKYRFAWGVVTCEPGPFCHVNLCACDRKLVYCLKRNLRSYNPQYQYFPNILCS
Experiment: Inhibition of human group 5 secreted phospholipase A2 by fluorescence assay
measured_quantity: pIC50
Interpret pIC50 as the negative base-10 log of the concentration measured in mol/L.

Query :: Give reported pIC50 value for CCCCCCCCCCCCCCC(=O)C(=O)N[C@H](C(=O)O)C(C)C
Result :: 5.92

----------
Each entry below lists one item and its recorded inhibition value.
Biological target: Group 10 secretory phospholipase A2 (Homo sapiens)
Experiment: Inhibition of human group 10 secreted phospholipase A2 at 10 uM by fluorescence assay
Numbers only; they are read as %.

# molecule, quantitative_readout
measured = [
    ("CC(C)[C@H](NC(=O)C(=O)c1ccc2ccccc2c1)C(=O)O", 56),
    ("CC(C)[C@H](NC(=O)C(=O)CCCCc1ccc(-c2ccccc2)cc1)C(=O)O", 54),
    ("CC(C)[C@H](NC(=O)C(=O)CCCCc1ccc2ccccc2c1)C(=O)O", 51),
]

Query compound follows.
Query :: Give Group 10 secretory phospholipase A2 (Homo sapiens) inhibition for the following compound: CC(C)[C@H](NC(=O)C(=O)CCCCc1ccccc1)C(=O)O
Result :: 40

----------
Molecular target: Phospholipase A2 group V (Homo sapiens) (UniProt P39877)
Assay: Inhibition of human group 5 secreted phospholipase A2 at 10 uM by fluorescence assay
Each entry below lists one item and its recorded inhibition value.
Numbers only; they are read as %.

# molecule, target_of_assay, quantitative_readout
measured = [
    ("CC(C)[C@H](NC(=O)C(=O)c1ccc2ccccc2c1)C(=O)O", "Phospholipase A2 group V (Homo sapiens) (UniProt P39877)", 53),
    ("CC(C)[C@H](NC(=O)C(=O)CCCCc1ccc2ccccc2c1)C(=O)O", "Phospholipase A2 group V (Homo sapiens) (UniProt P39877)", 26),
    ("CC(C)[C@H](NC(=O)C(=O)CCCCc1ccccc1)C(=O)O", "Phospholipase A2 group V (Homo sapiens) (UniProt P39877)", 40),
]

Query compound follows.
Query :: Give reported inhibition value for CC(C)[C@H](NC(=O)C(=O)CCCCc1ccc(-c2ccccc2)cc1)C(=O)O
Result :: 50

----------
Target: Phospholipase A2, membrane associated (Mus musculus, UniProt P31482)
Sequence (P31482 whole entry): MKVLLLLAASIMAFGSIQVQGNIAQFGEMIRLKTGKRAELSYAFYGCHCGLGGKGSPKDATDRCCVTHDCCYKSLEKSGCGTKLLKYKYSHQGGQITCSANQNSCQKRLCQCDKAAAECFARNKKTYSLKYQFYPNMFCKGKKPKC
Assay: Inhibition of mouse group 2A secreted phospholipase A2 by fluorescence assay
measured_quantity: pIC50
Interpret pIC50 as the negative base-10 log of the concentration measured in mol/L.

Query :: Give reported pIC50 value for CCCCCCCCCCCCCCC(=O)C(=O)N[C@H](C(=O)O)C(C)C
Result :: 7.17

----------
Each entry below lists one item and its recorded inhibition value.
Target: Phospholipase A2, membrane associated (Mus musculus)
Assay: Inhibition of mouse group 2A secreted phospholipase A2 at 1 uM by fluorescence assay

# molecule, target_of_assay, measured_quantity, result
rows = [
    ("CCCCCCCCCCCCCCC(=O)C(=O)N[C@@H](C)C(=O)O", "Phospholipase A2, membrane associated (Mus musculus)", "inhibition", "< 25%"),
    ("CCCCCCCCCCCCCCC(=O)C(=O)NC(C)(C)C(=O)O", "Phospholipase A2, membrane associated (Mus musculus)", "inhibition", "< 25%"),
    ("CCCCCCCCCCCCCCC(=O)C(=O)N[C@@H](CCC(=O)O)C(=O)O", "Phospholipase A2, membrane associated (Mus musculus)", "inhibition", "< 25%"),
    ("CCCCCCCCCCCCCCC(=O)C(=O)N1CCC[C@H]1C(=O)O", "Phospholipase A2, membrane associated (Mus musculus)", "inhibition", "< 25%"),
    ("CCCCCCCCCCCCCCC(=O)C(=O)N[C@@H](CCC(=O)O)C(=O)OCC", "Phospholipase A2, membrane associated (Mus musculus)", "inhibition", "< 25%"),
]

Query :: Give reported inhibition value for CCCCCCCCCCCCCCC(=O)C(=O)N[C@H](C(=O)O)C(C)(C)C
Result :: < 25%

----------
Molecular target: UniProt P14555
Sequence (whole entry): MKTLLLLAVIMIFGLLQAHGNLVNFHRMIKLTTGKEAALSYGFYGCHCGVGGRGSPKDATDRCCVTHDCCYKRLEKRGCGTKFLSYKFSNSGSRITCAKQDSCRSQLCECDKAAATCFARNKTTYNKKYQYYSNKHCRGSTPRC
Test: Inhibition of human group 2A secreted phospholipase A2 at 10 uM by fluorescence assay
measured_quantity: inhibition (%)
Numbers only; they are read as %.

Query :: Give UniProt P14555 inhibition for the following molecule: CC(C)[C@H](NC(=O)C(=O)CCCCc1ccc2ccccc2c1)C(=O)O
Result :: 27

----------
Biological target: Phospholipase A2, membrane associated (Homo sapiens)
Test: Inhibition of human group 2A secreted phospholipase A2 by fluorescence assay
measured_quantity: IC50 (nM)
Numbers only; they are read as nM.

Query :: Give Phospholipase A2, membrane associated (Homo sapiens) IC50 for the following compound: CCCCCCCCCCCCCCC(=O)C(=O)N[C@H](C(=O)O)C(C)C
Result :: 143

----------
Target: Phospholipase A2, membrane associated (Homo sapiens) (UniProt P14555)
Experiment: Inhibition of human group 2A secreted phospholipase A2 at 10 uM by fluorescence assay
measured_quantity: inhibition (%)
Numbers only; they are read as %.

# molecule, unit_text, inhibition
data = [
    ("CC(C)[C@H](NC(=O)C(=O)c1ccc2ccccc2c1)C(=O)O", "%", 50),
]

Query :: Give reported inhibition value for CC(C)[C@H](NC(=O)C(=O)CCCCc1ccc(-c2ccccc2)cc1)C(=O)O
Result :: 21

Query :: Give reported inhibition value for CC(C)[C@H](NC(=O)C(=O)CCCCc1ccccc1)C(=O)O
Result :: 11
